# experiment.summary: Agonist activity at SUR in Wistar rat islets of pancreas assessed as induction of glucose-stimulated insulin secretion preincubated for 1 hr followed by glucose addition measured after 30 mins by sandwich ELISA
log10 of EC50 values for the compounds below.
// stored as log10 of EC50 expressed in µM

Worked cases, answers included:
CC(=O)Nc1ccc(S(=O)(=O)NCCc2ccc(S(=O)(=O)NC(=O)NC3CCC(C)CC3)cc2)cc1C (stereo not drawn)    0.85
CCCCNC(=S)NS(=O)(=O)c1ccc(NC(=O)Cn2c(=O)c(C)nc3ccccc32)cc1    0.45
CC1CCC(NC(=O)NS(=O)(=O)c2ccc(CCNS(=O)(=O)c3ccccc3)cc2)CC1 (stereo not drawn)    0.53

Request: # lookup: log10 of EC50 of O=S(=O)(NCCc1ccc(S(=O)(=O)NC(=S)Nc2ccc(Cl)cc2)cc1)c1ccccc1
Result: 1.52

Request: Also, O=C(NC1CCCCC1)NS(=O)(=O)c1ccc(CCNS(=O)(=O)c2ccccc2)cc1 please.
Result: 1.10

Request: Also, CCCCNC(=O)NS(=O)(=O)c1ccc(NCC(=O)N2CC(=O)Nc3ccccc32)cc1 please.
Result: 0.29

Request: Also, Cc1nc2ccccc2n(CC(=O)Nc2ccc(S(=O)(=O)NC(=S)NC3CCCCC3)cc2)c1=O please.
Result: 0.43

Request: Also, CCCCNC(=O)NS(=O)(=O)c1ccc(NC(=O)CN2CC(=O)Nc3ccccc32)cc1 please.
Result: 0.23

###

# target: Peroxisome proliferator-activated receptor gamma (Homo sapiens)
# Sequence (P37231 whole entry, the tested form may be a part): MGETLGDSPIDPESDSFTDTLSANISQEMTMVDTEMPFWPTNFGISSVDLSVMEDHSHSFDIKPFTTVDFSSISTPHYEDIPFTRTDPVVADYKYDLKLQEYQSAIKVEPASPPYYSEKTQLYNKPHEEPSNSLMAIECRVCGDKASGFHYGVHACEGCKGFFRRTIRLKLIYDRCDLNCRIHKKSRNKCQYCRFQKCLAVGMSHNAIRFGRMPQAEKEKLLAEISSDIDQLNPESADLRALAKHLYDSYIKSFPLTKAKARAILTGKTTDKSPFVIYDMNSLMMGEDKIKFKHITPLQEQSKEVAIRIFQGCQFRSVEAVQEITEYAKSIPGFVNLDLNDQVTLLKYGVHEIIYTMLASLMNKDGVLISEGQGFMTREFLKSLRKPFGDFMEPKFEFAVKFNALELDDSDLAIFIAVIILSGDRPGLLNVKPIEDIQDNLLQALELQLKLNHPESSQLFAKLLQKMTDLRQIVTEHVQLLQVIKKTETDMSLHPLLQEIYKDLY
# experiment.summary: Displacement of fluormone-PPARgamma Green from recombinant human N-terminal GST-tagged PPARgamma-LBD by fluorescence polarization assay
endpoint: pIC50
Keep it numeric: pIC50 is minus log10 of the concentration in mol/L.

Worked cases, answers included:
CCCCNC(=O)NS(=O)(=O)c1ccc(NC(=O)CN2CC(=O)Nc3ccccc32)cc1    5.89
Cc1nc2ccccc2n(CC(=O)Nc2ccc(S(=O)(=O)NC(=O)NC3CCCCC3)cc2)c1=O    6.32
CCCCNC(=O)NS(=O)(=O)c1ccc(NCC(=O)N2CC(=O)Nc3ccccc32)cc1    5.88
Cc1nc2ccccc2n(CC(=O)Nc2ccc(S(=O)(=O)NC(=S)NC3CCCCC3)cc2)c1=O    6.46
O=C1CN(C(=O)CNc2ccc(S(=O)(=O)NC(=O)NC3CCCCC3)cc2)c2ccccc2N1    5.94
CCCCNC(=O)NS(=O)(=O)c1ccc(NC(=O)Cn2c(=O)c(C)nc3ccccc32)cc1    6.31
CCCCNC(=S)NS(=O)(=O)c1ccc(NC(=O)Cn2c(=O)c(C)nc3ccccc32)cc1    6.43

Request: # lookup: pIC50 of O=C(CN1CC(=O)Nc2ccccc21)Nc1ccc(S(=O)(=O)NC(=O)NC2CCCCC2)cc1
Result: 5.94

###

# experiment.summary: Agonist activity at SUR in Wistar rat islets of pancreas assessed as induction of glucose-stimulated insulin secretion preincubated for 1 hr followed by glucose addition measured after 30 mins by sandwich ELISA
endpoint: pEC50
Keep it numeric: pEC50 is minus log10 of the concentration in mol/L.

Worked cases, answers included:
CCCCNC(=O)NS(=O)(=O)c1ccc(NC(=O)Cn2c(=O)c(C)nc3ccccc32)cc1    6.01
CC(=O)Nc1ccc(S(=O)(=O)NCCc2ccc(S(=O)(=O)NC(=O)NC3CCC(C)CC3)cc2)cc1 (centres undefined)    4.70
O=C(CN1CC(=O)Nc2ccccc21)Nc1ccc(S(=O)(=O)NC(=O)NC2CCCCC2)cc1    5.81

Please examine the following record next.
Request: # lookup: pEC50 of COc1ccc(NC(=S)NS(=O)(=O)c2ccc(CCNS(=O)(=O)c3ccc(Cl)cc3)cc2)cc1
Result: 4.48

###

# experiment.summary: Agonist activity at SUR in Wistar rat islets of pancreas assessed as induction of glucose-stimulated insulin secretion preincubated for 1 hr followed by glucose addition measured after 30 mins by sandwich ELISA
endpoint: log10(EC50) (log10 of the value in µM)
// stored as log10 of EC50 expressed in µM

O=C1CN(C(=O)CNc2ccc(S(=O)(=O)NC(=O)NC3CCCCC3)cc2)c2ccccc2N1    0.28

Request: # lookup: log10(EC50) of O=C(NC1CCCCC1)NS(=O)(=O)c1ccc(CCNS(=O)(=O)c2ccc(Cl)cc2)cc1
Result: 0.49

Request: Also, COc1ccc(NC(=S)NS(=O)(=O)c2ccc(CCNS(=O)(=O)c3ccccc3)cc2)cc1 please.
Result: 3.00

Request: Also, CC1CCC(NC(=O)NS(=O)(=O)c2ccc(CCNS(=O)(=O)c3ccc(Br)cc3)cc2)CC1 (stereo not given) please.
Result: 0.20

Request: Also, CC1CCC(NC(=O)NS(=O)(=O)c2ccc(CCNS(=O)(=O)c3ccc(Cl)cc3)cc2)CC1 (stereo not given) please.
Result: 0.31

Request: Also, Cc1nc2ccccc2n(CC(=O)Nc2ccc(S(=O)(=O)NC(=O)NC3CCCCC3)cc2)c1=O please.
Result: -0.04

###

# experiment.summary: Agonist activity at SUR in Wistar rat islets of pancreas assessed as induction of glucose-stimulated insulin secretion preincubated for 1 hr followed by glucose addition measured after 30 mins by sandwich ELISA
pEC50 values for the compounds below.
Keep it numeric: pEC50 is minus log10 of the concentration in mol/L.

Cc1ccc(NC(=S)NS(=O)(=O)c2ccc(CCNS(=O)(=O)c3ccccc3)cc2)cc1    4.00
O=C(NC1CCCCC1)NS(=O)(=O)c1ccc(CCNS(=O)(=O)c2ccc(Br)cc2)cc1    5.62

Please examine the following record next.
Request: # lookup: pEC50 of O=S(=O)(NCCc1ccc(S(=O)(=O)NC(=S)Nc2ccc(Cl)cc2)cc1)c1ccc(Cl)cc1
Result: 4.48
